Assay: binders of probe aHhip on microarray, primary screen, stem cell growth factor project, biochemical, small-molecule microarray, fluorescence 635/667 (AID 1087);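 further: score merges spot fluorescence at 667nm with spot signal to noise ratio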
Conditions: higher = more signal
Class assignment keyed on composite z-score, ranges Low (below -0.1), Medium (-0.1 to below -0.02), High (-0.02 or more)

Completed entries (count: 5):
>  <compound>
Cc1ccc(S[C@]2(C(=O)O)CC(=O)N(C(C)C)[C@@H]2c2ccc(CO)cc2)cc1

>  <class label>
Low

$$$$
>  <compound>
COC(=O)c1c(CC[C@@H](CO)NC(=O)NCCc2c[nH]c3ccccc23)oc(C(=O)Cc2ccccc2)c1C(=O)OC

>  <class label>
High

$$$$
>  <compound>
C=C(CCCC)/C(=C/C[C@H](OC(C)=O)c1ccccc1OCCO)c1cnc2ccccc2c1

>  <class label>
High

$$$$
>  <compound>
C=CCC(OC(C)=O)[C@@H]1[C@@H](N(Cc2ccc(-c3cccc(C(F)(F)F)c3)o2)C(=O)Cc2ccc(OC)cc2)c2cc(OCCCO)ccc2N1C(=O)c1ccc2ccccc2c1 (stereo partly specified)

>  <class label>
Low

$$$$
>  <compound>
CCOC(=O)C1=C[C@@H](C(C)C)N(S(=O)(=O)c2ccc(C)cc2)[C@H]1c1ccccc1F

>  <class label>
Low

$$$$

Query block: Given CCCCC(=C=CC[C@@H](O)c1ccc(CO)o1)CCO , name the class its composite z-score places it in.
Result block: High

Query block: Given CC(C)N1CC=CC23O[C@@H]4C=CCOC(=O)[C@@H]4[C@H]2C(=O)N(CCCCCO)[C@@H]3C1=O (stereo partly specified) , name the class its composite z-score places it in.
Result block: Low

Query block: Given O=C1C2C=CC(C(O)C=Cc3ccc([N+](=O)[O-])cc3)N(n3cnnc3)C2C(=O)N1Cc1ccccc1 (stereo unspecified) , name the class its composite z-score places it in.
Result block: Low

Query block: Given COC(=O)[C@@]1(Cc2ccccc2)[C@H]2c3cc(C(=O)N4CCCC4)n(Cc4c(CO)[nH]cc(C)c4=O)c3C[C@H]2CN1C(=O)c1ccccc1 , name the class its composite z-score places it in.
Result block: Low

Query block: Given [N-]=[N+]=Nc1ccccc1C[C@]1(C(=O)NCC(O)CO)N=C(c2ccc(OCCCO)cc2)O[C@H]1c1ccccc1 (stereo partly specified) , name the class its composite z-score places it in.
Result block: Medium

====

Consider the following compounds; for each one, report its z-score.
Assay: optical density shifts of acrAB sulA E. coli – strain DRC41, OD650, 48 h, E. coli filamentation inducer project, primary screen (AID 1152);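 further: E. coli MC1000 strain DRC41 lacking acrAB efflux pump and sulA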
Settings: higher = more signal, called active from +8 up or from −8 down
Numbers only.

Worked cases, z-score given:
>  <compound>
[N-]=[N+]=NCc1ccccc1[C@@H]1OC(c2ccc(OCCCO)cc2)=N[C@]1(CCS(=O)(=O)c1ccccc1)C(=O)N1CCCCC1

>  <z-score>
0.323

$$$$
>  <compound>
C=C(C)[C@@H]1CC=C(C(O)C2C=CC3C(=O)NC(=O)C3N2Nc2ccc(Cl)cc2Cl)CC1 (stereo partly drawn)

>  <z-score>
-2.9

$$$$
>  <compound>
[N-]=[N+]=Nc1ccccc1[C@H]1OC(c2ccc(OCCCO)cc2)=N[C@@]1(CCS(=O)(=O)c1ccccc1)C(=O)NCc1ccccc1

>  <z-score>
-0.795

$$$$
>  <compound>
CCCC=C(CCC)[C@@H](NS(=O)(=O)c1ccc(Cl)cc1)c1ccc(C(=O)OC)cc1

>  <z-score>
-1.01

$$$$
>  <compound>
O=C1C2C=CC(C(O)c3ccc(-c4ccccc4)s3)N(Nc3ccccc3)C2C(=O)N1c1ccccc1 (stereo not drawn)

>  <z-score>
-0.517

$$$$
>  <compound>
NCCCCCCNC(=O)[C@H]1C[C@H]2C(=O)N[C@@H](Cc3ccccc3)C(=O)N2[C@H]1c1cccc(OCCO)c1

>  <z-score>
0.921

$$$$

Batch lookup, z-score per entry.
1. O=C1[C@H]2C=C(Br)[C@H](C[C@@H]2OCCCCCCO)[C@@]12CO2
2. CN(C)CCCCCCNC(=O)[C@@H]1C[C@@H]2C(=O)N[C@@H](CCCC[N+](C)(C)C)C(=O)N2[C@@H]1c1ccc(O)cc1

Result block:
-1.69
-0.3
